molecular target: Cyclin-dependent kinase 2/cyclin E (Homo sapiens); assay: In vitro inhibition of recombinant Cyclin Dependent Kinase-2/Cyclin E.
recorded endpoint: pIC50
Note: pIC50 values are expressed as the negative base-10 logarithm of concentration in M.

compound COc1cc[nH]c1/C=C1\C(=O)Nc2ccc(F)c(C#CC3(O)CCNCC3)c21.Cl , pIC50 observed: 8.22

compound COc1cc[nH]c1/C=C1\C(=O)Nc2ccc(F)c(C#C[C@@H]3C[C@@H](O)CN3)c21 , pIC50 observed: 8.40

compound COc1cc[nH]c1/C=C1\C(=O)Nc2ccc(F)c(C#C[C@@H]3CCCN3)c21 , pIC50 observed: 8.70

compound CN[C@H](C#Cc1c(F)ccc2c1/C(=C/c1[nH]ccc1OC)C(=O)N2)CO , pIC50 observed: 8.10

compound CCN[C@H](C#Cc1c(F)ccc2c1/C(=C/c1[nH]ccc1OC)C(=O)N2)[C@@H](C)O , pIC50 observed: 7.74

compound CNCC#Cc1c(F)ccc2c1/C(=C/c1[nH]ccc1OC)C(=O)N2 , pIC50 observed: 8.40

compound CN[C@@H](C#Cc1c(F)ccc2c1/C(=C/c1[nH]ccc1OC)C(=O)N2)CO , pIC50 observed: 8.40

compound COc1cc[nH]c1/C=C1\C(=O)Nc2ccc(F)c(C#C[C@@H](N)CO)c21 , pIC50 observed: 8.30

compound COc1cc[nH]c1/C=C1\C(=O)Nc2ccc(F)c(C#C[C@H](CO)NCCO)c21 , pIC50 observed: 7.02

----------
Recorded pIC50 values for a group of compounds are listed next.
target: Cyclin-dependent kinase 2/cyclin E (Homo sapiens); test: In vitro inhibition of recombinant Cyclin Dependent Kinase-2/Cyclin E.
Note: pIC50 values are expressed as the negative base-10 logarithm of concentration in M.

Completed entries (count: 4):
CCN[C@H](C#Cc1c(F)ccc2c1/C(=C/c1[nH]ccc1OC)C(=O)N2)CO	7.68
COc1cc[nH]c1/C=C1/C(=O)Nc2ccc(F)cc21	6.07
COc1cc[nH]c1/C=C1\C(=O)Nc2ccc(F)c(C#CC3(O)CCOCC3)c21	8.40
COc1cc[nH]c1/C=C1\C(=O)Nc2ccc(F)c(C#C[C@@H](C)O)c21	7.68

The record that follows has no pIC50 shown yet.
compound COc1cc[nH]c1/C=C1\C(=O)Nc2ccc(F)c(C#C[C@H](N)CO)c21 , pIC50 observed: 8.52

----------
target: Cyclin-dependent kinase 2/cyclin E (Homo sapiens); assay: In vitro inhibition of recombinant Cyclin Dependent Kinase-2/Cyclin E.
recorded endpoint: pIC50
Note: pIC50 values are expressed as the negative base-10 logarithm of concentration in M.

Completed entries (count: 6):
COc1cc[nH]c1/C=C1\C(=O)Nc2ccc(F)c(C#CC(O)CN)c21 (configuration not stated)	8.40
COc1cc[nH]c1/C=C1\C(=O)Nc2ccc(F)c(I)c21	6.00
COc1cc[nH]c1/C=C1\C(=O)Nc2ccc(F)c(C#C[C@@H](NS(C)(=O)=O)[C@@H](C)O)c21	7.35
COc1cc[nH]c1/C=C1\C(=O)Nc2ccc(F)c(C#C[C@@H](N)[C@@H](C)O)c21	8.05
COc1cc[nH]c1/C=C1\C(=O)Nc2ccc(F)c(C#C[C@@H]3C[C@H](O)CN3)c21	8.30
COc1cc[nH]c1/C=C1\C(=O)Nc2ccc(F)c(C#C[C@H](C)O)c21	7.59

The record that follows has no pIC50 shown yet.
molecule CN[C@H](C#Cc1c(F)ccc2c1/C(=C/c1[nH]ccc1OC)C(=O)N2)[C@@H](C)O , pIC50 observed: 8.15
